# assay-comment: Pharmacokinetic evaluation of bevirimat HPβCD formulation, intravenous, male Cynomolgus monkeys
# cond: male, cynomolgus monkey, in vivo, iv, 10 mg FAE/monkey, Plasma concentration, 12 hr; 2.5 mg FAE/mL in 10% HPβCD+3% Mannitol in water, 10 mg FAE/monkey intravenous injection; monkeys 115,116,120,AVG
# Text: Six male Cynomolgus monkeys having an initial body weight of about 3.5 to about 4.5 kg are allowed 7 days to acclimate to their individual housing units. Monkeys are supplied with water and a commercial diet ad libitum prior to the study initiation. Food is withheld from the monkeys for a minimum of twelve hours before the study and during the study until four hours postdose when food is returned. Water is supplied ad libitum. […]

# sample-smiles, endpoint-unit, concentration at 12 hr
measured = [
    ("C=C(C)[C@@H]1CC[C@]2(C(=O)O)CC[C@]3(C)[C@H](CC[C@@H]4[C@@]5(C)CC[C@H](OC(=O)CC(C)(C)C(=O)O)C(C)(C)[C@@H]5CC[C@]43C)[C@@H]12", "ng/mL", 762),
]
